system: Candida albicans; assay: Antifungal activity against Candida albicans ATCC 10231 incubated overnight by standard microtiter dilution method; assay type: functional
Peptide text beside a SMILES is read from it.
measured_quantity: MIC (mg/L)
Lab book: enter the figure in mg/L, no units written.

The recorded MIC for CC(C)[C@H](N)C(=O)N[C@@H](CCCCN)C(=O)N[C@H](C(=O)N[C@@H](CCCCN)C(=O)N[C@H](C(=O)N[C@@H](CCCCN)C(=O)N[C@@H](CS)C(=O)N[C@H](C(=O)N[C@@H](CCCCN)C(=O)N[C@@H](CO)C(=O)NCC(=O)N[C@@H](CS)C(=O)N[C@@H](CCCCN)C(=O)N[C@H](C(=O)N[C@@H](CCCCN)C(=O)N[C@H](C(=O)N[C@@H](CCCCN)C(=O)N[C@H](C(N)=O)C(C)C)C(C)C)C(C)C)[C@@H](C)O)C(C)C)C(C)C (H-VKVKVKCTKSGCKVKVKV-NH2) is 8
